Every entry's value here was drawn from ChEMBL document CHEMBL1124880.

Target: Adenosine receptor A1 (Rattus norvegicus, UniProt P25099)
Sequence (P25099 whole entry): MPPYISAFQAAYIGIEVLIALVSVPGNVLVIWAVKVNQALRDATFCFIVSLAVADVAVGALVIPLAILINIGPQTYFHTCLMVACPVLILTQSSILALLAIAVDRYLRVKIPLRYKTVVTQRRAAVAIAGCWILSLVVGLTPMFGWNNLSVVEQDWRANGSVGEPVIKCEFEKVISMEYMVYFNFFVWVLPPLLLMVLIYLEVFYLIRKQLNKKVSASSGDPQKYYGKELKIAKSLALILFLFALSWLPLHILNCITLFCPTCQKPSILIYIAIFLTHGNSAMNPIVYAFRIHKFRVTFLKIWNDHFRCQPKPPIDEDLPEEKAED
Assay: Binding affinity towards the adenosine A1 receptor in cerebral cortices of Sprague-Dawley male rats using [3H]CHA as radioligand.
assay-readout: pIC50
Please treat pIC50 as minus the base-10 logarithm of the molar concentration.

Reported pIC50, compound CCc1nnc2c(N)nc3ccccc3n12 : ____ 6.37

And for Nc1nc2ccc(F)cc2n2c(C(F)(F)F)nnc12 ? 6.54

----------
This section presents molecules with their documented IC50 values.
Organism: Rattus norvegicus
Assay: Evaluated for Ca++ independent phosphodiesterase activity.
Assay type: functional

Please review the following examples before continuing.
compound_string=COc1ccc2c(c1)nc(N)c1nncn12 observed="> 10 µM"
compound_string=CC(C)Nc1nc2ccc(Cl)cc2n2c(-c3ccccc3)nnc12 observed="> 10 µM"

Reported IC50, molecule CCCN(CCC)c1nc2ccc(F)cc2n2c(C(F)(F)F)nnc12 : ____ > 10 µM

----------
Molecular target: Adenosine A2 receptor (Rattus norvegicus, UniProt P29276+P30543)
assay-readout: IC50 (µM)
Quick reminder: number only, in µM, skip the unit.

Please review the following examples before continuing.
compound_string=CCc1nnc2c(N)nc3cc(Cl)ccc3n12 assay_readout=IC50 observed=0.029
compound_string=CCc1nnc2c(NC(C)C)nc3cc(Cl)c(Cl)cc3n12 assay_readout=IC50 observed=3.2
compound_string=CCc1nnc2c(N)nc3cc(F)ccc3n12 assay_readout=IC50 observed=0.17
compound_string=Nc1nc2ccc(F)cc2n2cnnc12 assay_readout=IC50 observed=1
compound_string=CCc1nnc2c(NC(C)C)nc3ccccc3n12 assay_readout=IC50 observed=6.4

Reported IC50, compound CC(C)Nc1nc2ccc(F)cc2n2cnnc12 : ____ 6.9

And for CC(C)Nc1nc2ccc(Cl)cc2n2cnnc12 ? 3.3

And for Nc1nc2ccc(F)cc2n2c(C(F)(F)F)nnc12 ? 0.1

And for Nc1nc2cc(Cl)ccc2n2cnnc12 ? 0.21

And for CC(C)Nc1nc2ccc(Cl)cc2n2c(C(F)(F)F)nnc12 ? 2.3

And for Fc1ccc2nc(NC3CCCCC3)c3nnc(C(F)(F)F)n3c2c1 ? 60

And for CCc1nnc2c(N)nc3ccc(Cl)cc3n12 ? 0.028

And for CCc1nnc2c(NC(C)C)nc3cc(F)c(F)cc3n12 ? 6.4

And for CC(C)Nc1nc2ccc(Cl)cc2n2c(C(F)(F)C(F)(F)F)nnc12 ? 3.1

And for Nc1nc2ccc(Cl)cc2n2c(-c3ccc(Cl)cc3)nnc12 ? 0.033

And for CC(C)Nc1nc2cc(F)ccc2n2cnnc12 ? 13
